# Test system: DIV14
# experiment: qHTS profiling for inhibitors of Plasmodium falciparum proliferation (AID 504749); note: nearly all actives have a fitted effect of over 60% in size
# assay setup: P. falciparum in erythrocytes, SYBR Green DNA, 72 h; series mostly up to 28.7 µM
Records with an inconclusive call do not appear. Activity calls are given as the source filed them. Calls come from the whole dose curve; as a rule, active = well fitted inhibition curve with a large enough effect; inconclusive = small, poorly fitted or top-dose-only effect; inactive = flat fitted curve, though single readings scatter.
Returns: one label drawn from active, inactive

Look over these answered cases.
CN1CCN(C(=O)O[C@H]2c3nccnc3C(=O)N2c2ccc(Cl)cn2)CC1; inactive
CN1C(=S)CN=C(c2ccccc2)c2cc(Cl)ccc21; inactive
O=C1NCN(c2ccccc2)C12CCN(CC1COc3ccccc3O1)CC2 (stereo unspecified); inactive

Input line: Hi, sorry to bother you, what did the test record for "Fc1ccc(C(OCCN2CCN(CCCc3ccccc3)CC2)c2ccc(F)cc2)cc1" ?
Output line: active

Input line: Try the molecule CCCC(C)(COC(N)=O)COC(=O)NC(C)C (stereo unspecified)
Output line: inactive

Input line: Try the molecule "FC(F)(F)c1cccc(C2=CCN(CCc3ccc4ccccc4c3)CC2)c1"
Output line: inactive

---

# experiment: Primary qHTS for Vero E6 cytotoxicity: counterscreen for inhibitors of SARS-S pseudo-typed particle cell entry (AID 1479150)
# assay setup: cell viability; series mostly up to 57.1 µM
Results filed as inconclusive are left out. Calls of active or inactive are those of the source. Calls come from the whole dose curve.
attribute measured: outcome

Examples with answers:
COc1ccc(C(CN(C)C)C2(O)CCCCC2)cc1 (centres undefined); inactive
COC(=O)[C@H]1[C@H]2C[C@@H]3c4[nH]c5cc(OC)ccc5c4CCN3C[C@H]2C[C@@H](OC(=O)c2cc(OC)c(OC)c(OC)c2)[C@@H]1OC; inactive
Fc1ccc([C@@H]2CCNC[C@H]2COc2ccc3c(c2)OCO3)cc1; inactive
OCCN1CCN(CCCN2c3ccccc3Sc3ccc(Cl)cc32)CC1; inactive

Input line: Fill in: outcome of "COc1ccc([C@@H]2Sc3ccccc3N(CCN(C)C)C(=O)[C@@H]2OC(C)=O)cc1" is ___
Output line: inactive

Input line: Try the compound "O=c1n(CCCN2CCN(c3cccc(Cl)c3)CC2)nc2ccccn12"
Output line: inactive

Input line: Try the compound "NC[C@H](O)c1ccc(O)c(O)c1"
Output line: inactive

Input line: Try the compound "C[C@H]1c2cccc(O)c2C(O)=C2C(=O)[C@]3(O)C(O)=C(C(N)=O)C(=O)[C@@H](N(C)C)[C@@H]3[C@@H](O)[C@@H]21"
Output line: inactive

Input line: Try the compound CN1C(CCl)Nc2cc(Cl)c(S(N)(=O)=O)cc2S1(=O)=O (centres undefined)
Output line: inactive

---

# experiment: qHTS for Inhibitors of the Functional Ribonucleoprotein Complex (vRNP) of Lassa (LASV) Arenavirus: Viability assay - alamar blue signal for LASV Primary Screen (AID 1347083); note: nearly all actives have a fitted effect of over 80% in size
# assay setup: cell viability, alamar blue fluorescence (LASV minigenome counter-screen); series mostly up to 57.5 µM
Results filed as inconclusive are left out. The source made the active and inactive calls. Calls come from the whole dose curve; tested in HEK293 reporter line.
Returns: one label drawn from yes for active, no for inactive

CN1C(=S)CN=C(c2ccccc2)c2cc(Cl)ccc21; no
Cc1ccc(C)c(OCCCC(C)(C)C(=O)O)c1; no

Input line: Hi, sorry to bother you, what did the test record for "NCCC(O)(P(=O)(O)O)P(=O)(O)O" ?
Output line: no

Input line: Try the molecule Nc1cccc2c1CN(C1CCC(=O)NC1=O)C2=O (stereo not given)
Output line: no

Input line: Try the molecule "Cc1ccc(C(=O)c2cc(O)c(O)c([N+](=O)[O-])c2)cc1"
Output line: no

Input line: Try the molecule "COC(c1ccccc1)(c1ccccc1)[C@H](Oc1nc(C)cc(C)n1)C(=O)O"
Output line: no

Input line: Try the molecule "C[C@H]1O[C@H](O[C@H]2[C@H](O)[C@@H](O)[C@@H](O[C@H]3[C@H](O)[C@@H](O)[C@H](O)O[C@@H]3CO)O[C@@H]2CO)[C@H](O)[C@@H](O)[C@@H]1N[C@H]1C=C(CO)[C@@H](O)[C@H](O)[C@H]1O"
Output line: no

Input line: Try the molecule "CC(=O)Nc1cc([As](=O)(O)O)ccc1O"
Output line: no

Input line: Try the molecule "C[C@]12CCC(=O)C(O)=C1CC[C@@H]1[C@@H]2CC[C@]2(C)C(=O)CC[C@@H]12"
Output line: no

Input line: Try the molecule "Cn1c(CCCC(=O)O)nc2cc(N(CCCl)CCCl)ccc21"
Output line: no

Input line: Try the molecule "NC(=O)c1cn(Cc2c(F)cccc2F)nn1"
Output line: no

Input line: Try the molecule C[C@H]1[C@H](NC(=O)/C(=N/OC(C)(C)C(=O)O)c2csc(N)n2)C(=O)N1S(=O)(=O)O (stereo in doubt)
Output line: no

Input line: Try the molecule "CN(C)CCC[C@@]1(c2ccc(F)cc2)OCc2cc(C#N)ccc21"
Output line: no

Input line: Try the molecule CN1C(CCl)Nc2cc(Cl)c(S(N)(=O)=O)cc2S1(=O)=O (stereo not given)
Output line: no

Input line: Try the molecule "C#CCN(C)[C@H](C)Cc1ccccc1"
Output line: no

Input line: Try the molecule COc1ccccc1OCC(O)CN1CCN(CC(=O)Nc2c(C)cccc2C)CC1 (stereo not given)
Output line: no

Input line: Try the molecule "CCc1c2c(nc3ccc(OC(=O)N4CCC(N5CCCCC5)CC4)cc13)-c1cc3c(c(=O)n1C2)COC(=O)[C@]3(O)CC"
Output line: yes

Input line: Try the molecule "COc1ccc(Cl)cc1C(=O)NCCc1ccc(S(=O)(=O)NC(=O)NC2CCCCC2)cc1"
Output line: no

Input line: Try the molecule COc1ccc2nc(S(=O)Cc3ncc(C)c(OC)c3C)[nH]c2c1 (stereo not given)
Output line: no

Input line: Try the molecule COc1cc2nc(N(C)CCCNC(=O)C3CCCO3)nc(N)c2cc1OC (stereo not given)
Output line: no

---

# tested target: Voltage-gated inwardly rectifying potassium channel KCNH2 (Homo sapiens)
# experiment: qHTS Assay for Small Molecule Inhibitors of the Human hERG Channel Activity (AID 588834);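 note: U2OS cells transduced with hERG by BacMam; top concentration of the series differs between compounds; lower thallium flux fluorescence means stronger hERG block; nearly all actives have a fitted effect of over 50% in size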
# assay setup: U2OS BacMam hERG, FluxOR thallium flux fluorescence; series mostly up to 46.1 µM
# Description: NIH Chemical Genomics Center [NCGC] National Institutes of Environmental Health Sciences [NIEHS] National Toxicology Program [NTP] We have developed a 1536-well cell-based assay for quantitative high throughput screening (qHTS) to determine in vitro hERG channel blockage as a measure of cardio toxicity with small molecules. […] 13. Read fluorescence Intensity on FDSS for 10 Sec with 1 sec interval […] 15. Read fluorescence Intensity on FDSS for 2 min with 1 sec interval […]
Records with an inconclusive call do not appear. Activity calls are given as the source filed them. Calls follow the shape of the dose curve; as a rule, active = well fitted inhibition curve with a large enough effect; inconclusive = small, poorly fitted or top-dose-only effect; inactive = flat fitted curve, though single readings scatter.
attribute measured: outcome

Examples with answers:
O=C1CC[C@@]2(O)[C@H]3Cc4ccc(O)c5c4[C@@]2(CCN3CC2CC2)[C@H]1O5; inactive
C#CCOC(C(=O)OCCN(C)C)(c1ccccc1)c1ccccc1; inactive
C=C(C)[C@H]1Cc2c(ccc3c2O[C@@H]2COc4cc(OC)c(OC)cc4[C@@H]2C3=O)O1; inactive
NCCc1cc(O)c(O)cc1O; inactive
Clc1cccc(N2CCNCC2)c1; inactive

In the following, a different compound is considered.
Input line: Fill in: outcome of "Oc1cccc2cccnc12" is ___
Output line: inactive

---

# experiment: Validation screen for inhibitors of Lassa infection (AID 463096)
# assay setup: Lassa virus infection, cell-based; series mostly up to 46.1 µM
Inconclusive results are not listed. Active and inactive are the calls of the source. Calls follow the shape of the full dose curve.
Returns: one label drawn from active, inactive

Look over these answered cases.
CCCN1CCC[C@@H]2Cc3nc(N)ncc3C[C@H]21; inactive
COc1ccc(Cl)cc1C(=O)NCCc1ccc(S(=O)(=O)NC(=O)NC2CCCCC2)cc1; inactive
CCCN(CCC)CCc1cccc2c1CC(=O)N2; inactive

Input line: Hi, sorry to bother you, what did the test record for "N#CC(C#N)=Cc1ccc(O)c(O)c1" ?
Output line: inactive

Input line: Try the compound "COCCCC/C(=N\OCCN)c1ccc(C(F)(F)F)cc1"
Output line: inactive

Input line: Try the compound "CC(=O)CCCCn1c(=O)c2c(ncn2C)n(C)c1=O"
Output line: inactive

Input line: Try the compound "Nc1ccncc1"
Output line: inactive

Input line: Try the compound CNC1(C)C2CCC(C2)C1(C)C (stereo unspecified)
Output line: inactive

Input line: Try the compound "CCN(CC)CCOC(=O)C1(C2CCCCC2)CCCCC1"
Output line: inactive

---

# tested target: Phosphoglycerate kinase, glycosomal (Trypanosoma brucei brucei) (UniProt P07378)
# Sequence (P07378 whole entry, looked up): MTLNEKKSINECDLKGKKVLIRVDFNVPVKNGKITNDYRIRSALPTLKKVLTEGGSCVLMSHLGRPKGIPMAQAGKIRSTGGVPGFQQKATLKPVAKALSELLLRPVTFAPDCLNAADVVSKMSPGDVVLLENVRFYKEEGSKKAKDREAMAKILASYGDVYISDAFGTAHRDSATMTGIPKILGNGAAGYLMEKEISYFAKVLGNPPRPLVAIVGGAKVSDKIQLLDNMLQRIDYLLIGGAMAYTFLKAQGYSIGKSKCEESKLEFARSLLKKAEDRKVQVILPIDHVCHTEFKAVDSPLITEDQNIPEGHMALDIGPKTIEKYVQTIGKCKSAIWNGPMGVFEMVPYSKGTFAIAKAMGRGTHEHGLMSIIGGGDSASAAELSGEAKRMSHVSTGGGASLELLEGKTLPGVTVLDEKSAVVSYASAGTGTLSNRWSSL
# experiment: qHTS Validation Assay to Find Inhibitors of Phosphoglycerate Kinase (AID 504547)
# assay setup: enzymatic PGK inhibition, coupled luminescence read-out; series mostly up to 57.5 µM
Activity calls are given as the source filed them. Calls follow the shape of the dose curve; as a rule, active = well fitted inhibition curve with a large enough effect; inconclusive = small, poorly fitted or top-dose-only effect; inactive = flat fitted curve, though single readings scatter.
Returns: one label drawn from active, inactive

Look over these answered cases.
NCC(O)c1ccc(O)cc1 (stereo unspecified); inactive
c1ccc(C2CC2)c(OCC2=NCCN2)c1; inactive
CC(CCc1ccccc1)NC(C)C(O)c1ccc(O)cc1 (stereo unspecified); inactive
CC(O)(CS(=O)(=O)c1ccc(F)cc1)C(=O)Nc1ccc(C#N)c(C(F)(F)F)c1 (stereo unspecified); inactive
CCCN1CCC[C@@H]2Cc3nc(N)ncc3C[C@H]21; inactive
CCCN1CCC[C@@H]2Cc3[nH]ncc3C[C@H]21; inactive
Nc1ccncc1; inactive
Fc1ccc(C(OCCN2CCN(CCCc3ccccc3)CC2)c2ccc(F)cc2)cc1; inactive

Input line: Hi, sorry to bother you, what did the test record for "Cc1cccc(C)c1NC1=NCCCS1" ?
Output line: inactive

Input line: Try the compound "C=C(C)[C@H]1Cc2c(ccc3c2O[C@@H]2COc4cc(OC)c(OC)cc4[C@@H]2C3=O)O1"
Output line: inactive

Input line: Try the compound "O=c1c(O)c(-c2ccc(O)c(O)c2)oc2cc(O)cc(O)c12"
Output line: active
